Assignment: determine reported gcPBM binding intensity (ln) for the given sequences.
system: PF3D7_0420300 AP2 domain 1 (GST-tagged); experiment: gcPBM binding intensity (ln(normalized median fluorescence intensity)); higher = stronger DNA binding
Over roughly 25,000 sequences, “ln(normalized median fluorescence intensity)” has its median near 9.3; the highest 2% begin near 10. Only a selection was taken, and the highest values are over-represented in it overall.
Provide a numeric answer; units are not to be included.

q: Any idea what gcPBM binding intensity (ln) came out for AAATTAATTAAATATACACACATATATAAATATATA [CACACA_site391] on PF3D7_0420300 AP2 domain 1 (GST-tagged)?
a: 9.38

q: Provide the documented gcPBM binding intensity (ln) with PF3D7_0420300 AP2 domain 1 (GST-tagged) as the system for ACATATACAAAACACACACACAACGTTTTAATAAAT [CACACA_site1979]
a: 10.1

q: Find gcPBM binding intensity (ln) (PF3D7_0420300 AP2 domain 1 (GST-tagged)) for the entry CAAATACACGGACACACACACACAAAAAAAAAAAAA [CACACA_site6385]
a: 10.1

Measured values drawn from the supplement of paper PMC11417369 for this set.
